B1: tRNA (parent)
chain: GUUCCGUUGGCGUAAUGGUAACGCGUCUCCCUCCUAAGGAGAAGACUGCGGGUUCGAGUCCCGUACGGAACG

Variants of: B1
Test: yeast fitness, log relative to wild type (ln ratio); higher = fitter; tRNA-Arg(CCU), competitive growth, 37 C, 1 M NaCl
Ranges used to classify yeast fitness (ln): bottom end (below -0.3), midrange (-0.3 to below -0.1), top end (-0.1 or more)

A selection of reference data follows.
[[record]]
sequence_variant = "G1A G6A C71U"
assigned_class = "bottom end"

[[record]]
sequence_variant = "U2G G6A C27U C46U C66A A70U"
assigned_class = "midrange"

[[record]]
sequence_variant = "U2C C27U A43C C66A A70G C71U"
assigned_class = "midrange"

[[record]]
sequence_variant = "G6U C27U A43C C66U A69G A70G C71U"
assigned_class = "bottom end"

[[record]]
sequence_variant = "U2C G6U C27U C46U C66U A69G A70U"
assigned_class = "midrange"


IN: Hi, small favor: classify U2G G6A A70U C71U by its yeast fitness (ln) when you get a moment.
OUT: midrange

IN: Hi, small favor: classify U2C G6U A43C C46U C66U A69G C71U by its yeast fitness (ln) when you get a moment.
OUT: bottom end

IN: Hi, small favor: classify U2C G6A A43C C46U C71U by its yeast fitness (ln) when you get a moment.
OUT: top end

IN: Hi, small favor: classify G1A U2C G6A C46U C66U A69G A70G by its yeast fitness (ln) when you get a moment.
OUT: top end

IN: Hi, small favor: classify G6U C66A A69G A70G C71U by its yeast fitness (ln) when you get a moment.
OUT: bottom end

IN: Hi, small favor: classify G1A U2C C27U C46U C66A C71U by its yeast fitness (ln) when you get a moment.
OUT: midrange

IN: Hi, small favor: classify G1A C27U A43C A69G A70U C71U by its yeast fitness (ln) when you get a moment.
OUT: bottom end

IN: Hi, small favor: classify G6A C27U A43C A70G by its yeast fitness (ln) when you get a moment.
OUT: midrange

IN: Hi, small favor: classify G6U A43C C46U C66U A70U by its yeast fitness (ln) when you get a moment.
OUT: midrange

IN: Hi, small favor: classify A43C C46U C66A C71U by its yeast fitness (ln) when you get a moment.
OUT: top end

IN: Hi, small favor: classify G6A C27U A70G C71U by its yeast fitness (ln) when you get a moment.
OUT: midrange
